Target: T1, human Siglec15-Fc fusion protein (human, UniProt Q6ZMC9 20-263)
T1 construct: Bought protein (Acro #SG5-H5253 is named for the selection); also called recombinant Siglec 15-Fc fusion protein (Acro #SG5-H5253); human Siglec15-Fc protein; not shown: Fc part of the bought fusion protein
T1 sequence (looked up): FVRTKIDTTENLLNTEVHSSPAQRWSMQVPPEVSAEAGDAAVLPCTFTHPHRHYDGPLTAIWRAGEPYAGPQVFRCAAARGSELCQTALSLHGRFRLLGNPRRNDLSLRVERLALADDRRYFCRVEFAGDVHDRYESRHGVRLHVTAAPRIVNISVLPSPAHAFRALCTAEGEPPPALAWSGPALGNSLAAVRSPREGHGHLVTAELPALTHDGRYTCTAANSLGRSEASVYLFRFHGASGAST
Test: SPR Biacore T200; Siglec15-Fc captured on Protein A chip, scFv as analyte
pKd: −log10 of the molar value.
metricName: pKd

>  <binder>
2020EP083-H01 scFv (scFv, V domains shown, Tested as a single-chain scFv made in E. coli with a C-terminal flag and 6x His tag) VH: QLQLQESGPGLVKPAETLSLTCTVSGGSVSSGDNLWDWIRQPPGKGLEWIGSIRDSGNPAYNPSLRSRVTISADTSTDQFSLKLTSVTAADTAVYYCARHSDGGYGKIYGMDVWGQGTTVTVSS VL: DIQLTQSPSFLSASVGDRVTITCRASQAVSTYLVWYLQKPGQAPRLLIYAASTLQSGVPSRFSGSGSGTDFTLTISRLQPEDAGTYFCQQLNSNALVFGGGTKVDIK

>  <metricName>
pKd

>  <assayValue>
7.98

$$$$

Origin of measurements: patent US20240336683A1
